experimentalSystem: rat A3 adenosine receptors (Rattus norvegicus, UniProt P28647)
Construct: expressed in transfected cells; host or cells: CHO cells, stably transfected
Sequence (P28647 whole entry): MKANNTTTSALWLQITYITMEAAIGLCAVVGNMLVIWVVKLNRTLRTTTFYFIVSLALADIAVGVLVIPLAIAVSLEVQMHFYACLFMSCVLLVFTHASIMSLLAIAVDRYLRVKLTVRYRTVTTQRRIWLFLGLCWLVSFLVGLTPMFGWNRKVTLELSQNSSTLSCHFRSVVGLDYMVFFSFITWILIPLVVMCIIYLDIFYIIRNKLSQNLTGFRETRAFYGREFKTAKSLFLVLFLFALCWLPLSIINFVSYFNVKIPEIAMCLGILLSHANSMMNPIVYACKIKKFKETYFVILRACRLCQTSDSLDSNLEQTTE
experimentalDetails: Inhibition of adenylate cyclase in CHO cells stably transfected with rat A3 adenosine receptors
Type: cell-based
assaySetup: CHO; 100 μM; 1 μM forskolin; average ± S.E.M. for 2-3 determinations or a single value; read-out: % Inhib. (adenylate cyclase)
Give measured inhibition at 100 µM for each item. Keep answers brief.
Respond with a number, then the unit of measure.

Solved cases (3 shown):
smilesStr: CSc1nc(NCc2cccc(I)c2)c2ncn(C)c2n1
testReadout: inhibition at 100 µM
dataValue: 19.5%
//
smilesStr: CNC(=O)[C@@H]1C[C@H](N=[N+]=[N-])[C@H](n2cnc3c(NCc4cccc(I)c4)nc(Cl)nc32)O1
testReadout: inhibition at 100 µM
dataValue: 27.8%
//
smilesStr: CNC(=O)[C@H]1O[C@@H](n2cnc3c(NCc4cccc(I)c4)nc(Cl)nc32)[C@@H]2OC(=S)O[C@@H]21
testReadout: inhibition at 100 µM
dataValue: 54.5%

// for each molecule below, give its inhibition at 100 µM
1. O[C@@H]1[C@H](O)CO[C@H]1n1cnc2c(NCc3cccc(I)c3)nc(Cl)nc21
2. CC(C)[Si]1(C(C)C)OC[C@H]2O[C@@H](n3cnc4c(NCc5cccc(I)c5)nc(Cl)nc43)[C@H](O)[C@@H]2O[Si](C(C)C)(C(C)C)O1

["42.2%", "8.7%"]

The reported numbers originate from patent US5688774A.
